# Tested on: MDA-MB-231
# experiment description: Antiproliferative activity against human MDA-MB-231 cells after 48 hrs by MTT assay
# Format: functional, cell-based
# condition: MDA-MB-231, 48 h
Please use 1.0 for IC50 under 4 µM and 0.0 for everything else, ties included.

given smiles	cat
COc1cccc(S(=O)(=O)Nc2cc(OC)c3cc2C[C@H]2c4c(cc(OC)c(OC)c4Oc4cc5c(cc4OC)CCN(C)[C@H]5Cc4ccc(cc4)O3)CCN2C)c1	0.0
COc1cc(NS(=O)(=O)c2ccc(C(F)(F)F)cc2)c2cc1Oc1ccc(cc1)C[C@H]1c3cc(c(OC)cc3CCN1C)Oc1c(OC)c(OC)cc3c1[C@H](C2)N(C)CC3	0.0
COc1cc(NS(=O)(=O)c2ccc3ccccc3c2)c2cc1Oc1ccc(cc1)C[C@H]1c3cc(c(OC)cc3CCN1C)Oc1c(OC)c(OC)cc3c1[C@H](C2)N(C)CC3	1.0
COc1cc(NS(=O)(=O)c2c(C)cc(C)cc2C)c2cc1Oc1ccc(cc1)C[C@H]1c3cc(c(OC)cc3CCN1C)Oc1c(OC)c(OC)cc3c1[C@H](C2)N(C)CC3	0.0
COc1cc(NS(=O)(=O)c2cc(Cl)cc(Cl)c2)c2cc1Oc1ccc(cc1)C[C@H]1c3cc(c(OC)cc3CCN1C)Oc1c(OC)c(OC)cc3c1[C@H](C2)N(C)CC3	1.0
COc1cc(NS(=O)(=O)c2ccc(Br)cc2)c2cc1Oc1ccc(cc1)C[C@H]1c3cc(c(OC)cc3CCN1C)Oc1c(OC)c(OC)cc3c1[C@H](C2)N(C)CC3	0.0

====

# System: K562
# experiment description: Antiproliferative activity against human K562 cells after 48 hrs by MTT assay
# Assay type: functional, cell-based
# condition: K562, 48 h
Please use Satisfied for IC50 under 2 µM and Not satisfied for everything else, ties included.

given smiles	cat
COc1cc(NS(=O)(=O)c2ccc(Cl)nc2)c2cc1Oc1ccc(cc1)C[C@H]1c3cc(c(OC)cc3CCN1C)Oc1c(OC)c(OC)cc3c1[C@H](C2)N(C)CC3	Not satisfied
COc1cc(NS(=O)(=O)c2ccc(F)cc2)c2cc1Oc1ccc(cc1)C[C@H]1c3cc(c(OC)cc3CCN1C)Oc1c(OC)c(OC)cc3c1[C@H](C2)N(C)CC3	Not satisfied
COc1cc(NS(=O)(=O)c2ccc(NC(C)=O)cc2)c2cc1Oc1ccc(cc1)C[C@H]1c3cc(c(OC)cc3CCN1C)Oc1c(OC)c(OC)cc3c1[C@H](C2)N(C)CC3	Not satisfied
COc1cc(NS(=O)(=O)c2ccccc2F)c2cc1Oc1ccc(cc1)C[C@H]1c3cc(c(OC)cc3CCN1C)Oc1c(OC)c(OC)cc3c1[C@H](C2)N(C)CC3	Not satisfied
COc1cc(NS(=O)(=O)c2ccc(Cl)cc2)c2cc1Oc1ccc(cc1)C[C@H]1c3cc(c(OC)cc3CCN1C)Oc1c(OC)c(OC)cc3c1[C@H](C2)N(C)CC3	Not satisfied
COc1cc(NS(=O)(=O)c2cccc3cccnc23)c2cc1Oc1ccc(cc1)C[C@H]1c3cc(c(OC)cc3CCN1C)Oc1c(OC)c(OC)cc3c1[C@H](C2)N(C)CC3	Satisfied
COc1cc(NS(=O)(=O)c2cccc(Br)c2)c2cc1Oc1ccc(cc1)C[C@H]1c3cc(c(OC)cc3CCN1C)Oc1c(OC)c(OC)cc3c1[C@H](C2)N(C)CC3	Satisfied
COc1cc(NS(=O)(=O)c2cc(Cl)cc(Cl)c2)c2cc1Oc1ccc(cc1)C[C@H]1c3cc(c(OC)cc3CCN1C)Oc1c(OC)c(OC)cc3c1[C@H](C2)N(C)CC3	Satisfied
COc1cc([N+](=O)[O-])c2cc1Oc1ccc(cc1)C[C@H]1c3cc(c(OC)cc3CCN1C)Oc1c(OC)c(OC)cc3c1[C@H](C2)N(C)CC3	Not satisfied
COc1cc(NS(=O)(=O)c2ccc([N+](=O)[O-])cc2)c2cc1Oc1ccc(cc1)C[C@H]1c3cc(c(OC)cc3CCN1C)Oc1c(OC)c(OC)cc3c1[C@H](C2)N(C)CC3	Not satisfied
COc1cc(NS(=O)(=O)c2ccc3ccccc3c2)c2cc1Oc1ccc(cc1)C[C@H]1c3cc(c(OC)cc3CCN1C)Oc1c(OC)c(OC)cc3c1[C@H](C2)N(C)CC3	Satisfied
